Source: ChEMBL document CHEMBL4715757

target: Sphingosine-1-phosphate lyase 1 (Homo sapiens); assay: Inhibition of recombinant human S1PL using RBM13 as fluorogenic substrate incubated for 1 hr
Sequence (O95470 whole entry): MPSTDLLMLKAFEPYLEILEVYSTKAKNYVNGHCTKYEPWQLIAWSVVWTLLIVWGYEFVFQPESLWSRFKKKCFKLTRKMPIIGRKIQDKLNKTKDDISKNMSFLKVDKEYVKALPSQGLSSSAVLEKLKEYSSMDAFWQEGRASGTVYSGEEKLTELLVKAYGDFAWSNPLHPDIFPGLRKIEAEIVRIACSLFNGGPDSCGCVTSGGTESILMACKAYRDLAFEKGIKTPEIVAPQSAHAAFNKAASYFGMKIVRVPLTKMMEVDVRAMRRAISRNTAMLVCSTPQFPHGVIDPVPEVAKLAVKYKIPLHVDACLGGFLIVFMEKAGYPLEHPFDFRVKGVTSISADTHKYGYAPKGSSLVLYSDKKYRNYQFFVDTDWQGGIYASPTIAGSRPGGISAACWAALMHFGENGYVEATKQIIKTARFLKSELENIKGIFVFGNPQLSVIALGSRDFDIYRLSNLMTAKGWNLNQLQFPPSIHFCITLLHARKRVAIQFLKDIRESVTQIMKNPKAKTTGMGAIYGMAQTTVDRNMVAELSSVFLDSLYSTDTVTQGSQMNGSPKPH
Yes if IC50 is below 30 µM. No if not; exact matches included in No.

# example entries with known answers
CCCCCCCCCCCCC/C=C/[C@@H](O)[C@@H](COP(=O)(O)O)N=[N+]=[N-] :: Yes
CCCCCCCCCCCCC/C=C/[C@H](O)[C@@H](COP(=O)(O)O)N=[N+]=[N-] :: Yes
CCCCCCCCCCCCCCC[C@H](O)[C@H](COP(=O)(O)O)N=[N+]=[N-] :: Yes
CCCCCCCCCCCCCCC[C@H](O)[C@@H](COP(=O)(O)O)N=[N+]=[N-] :: Yes
CCCCCCCCCCCCC/C=C/[C@@H](O)[C@H](COP(=O)(O)O)NCc1c(COP(=O)(O)O)cnc(C)c1O :: No
CCCCCCCCCCCCC/C=C/[C@@H](O)[C@H](COP(=O)(O)O)N=[N+]=[N-] :: Yes
CCCCCCCCCCCCCCC[C@@H](O)[C@H](COP(=O)(O)O)N=[N+]=[N-] :: Yes
CCCCCCCCCCCCCCC[C@@H](O)[C@H](COP(=O)(O)O)NCc1c(COP(=O)(O)O)cnc(C)c1O :: No

Query :: Just wondering, is IC50 of CCCCCCCCCCCCC/C=C/[C@H](O)[C@H](COP(=O)(O)O)N=[N+]=[N-] below 30 µM?
Result :: Yes

Query :: Just wondering, is IC50 of CCCCCCCCCCCCCCC[C@@H](O)[C@@H](COP(=O)(O)O)N=[N+]=[N-] below 30 µM?
Result :: Yes
